Reference source for all entries: PubChem BioAssay (NCI)

Test system: DU-145 prostate
METHOD_SUMMARY: NCI-60 one-dose screen, 48 h
COND: 10 µM unless noted
The panel holds about 83,000 compounds, 20% with a hit somewhere; the sample as a whole holds those more often. Active and inactive are the calls of the source. The calls were made as follows: active = growth percent below 10; inactive = the rest.
The reply should be one of these categories: yes (1) for active, no (0) for inactive

Field: outcome | Entry: COc1ccccc1C(=O)O/N=C(\N)Cc1cccc2ccccc12
no (0)

Field: outcome | Entry: CC1(O)COCCCCOc2c(CN)cccc2NC(=O)c2nc(cnc2N)-c2ccc(cc2)S(=O)(=O)C(C)(C)C1 (configuration not stated)
yes (1)

Field: outcome | Entry: O=C(COc1cc(O)c2c(=O)cc(-c3ccccc3)oc2c1)Nc1ccccc1
no (0)

Field: outcome | Entry: CCN(CC)CCNC(=O)C(Cl)=C1C(Cl)=C(Cl)C(Cl)=C1Cl
no (0)

Field: outcome | Entry: CC(C)C[C@H](C(=O)N[C@@H](C)C(N)=O)N1CC=CCN(O)S1(=O)=O
no (0)

Field: outcome | Entry: O=C(Cn1cc(COc2ncnc3c2cnn3-c2ccccc2)nn1)Nc1cccc2ccccc12
no (0)

Field: outcome | Entry: COc1ccc(C(=O)C2CC2c2ccc(Cl)cc2)cc1 (configuration not stated)
no (0)

Field: outcome | Entry: CCCCCCn1c(=N)n(CC(O)COc2cccc(C)c2)c2ccccc21 (configuration not stated)
yes (1)

Field: outcome | Entry: O=c1oc2ccc(I)cc2c(=O)n1-c1ccc(Cl)cc1F
no (0)

Field: outcome | Entry: CC(=O)c1ccc(NC(=O)Nc2ccc(S(=O)(=O)Nc3ccc(Cl)nn3)cc2)cc1
no (0)

Field: outcome | Entry: CCCCCCCCCCCCCCn1cc(C2=C(c3coc4ccc(OC)cc34)C(=O)NC2=O)c2ccccc21
no (0)

Field: outcome | Entry: O=C1c2cc(Br)ccc2Oc2cc([N+](=O)[O-])ccc2N1c1ccc(I)cc1F
no (0)

Field: outcome | Entry: Cc1sc2ncnc(Sc3nc4ccccc4[nH]3)c2c1C
yes (1)

Field: outcome | Entry: O=C1C(Cl)=C(NCc2ccco2)C(=O)c2ccccc21
no (0)

Field: outcome | Entry: COC(=O)/C(=C\c1c(-c2ccccc2)[nH]c2ccccc12)S(C)(=O)=O
yes (1)

Field: outcome | Entry: Nc1ccn(C2O[C@H](CO)[C@@H](O)[C@H]2O)c(=O)n1 (some centres not stated)
no (0)

Field: outcome | Entry: O=C(O)CCCN1C(=O)C2C3CCC(C3)C2C1=O (configuration not stated)
no (0)

Field: outcome | Entry: COc1cccc2cc(N(C)c3nc(C)nc4ccsc34)ccc12
yes (1)

Field: outcome | Entry: CN1C(=O)N(C)C2Nn3c(s/c(=C4\C(=O)N(CCc5ccccc5)c5ccccc54)c3=O)=NC21 (configuration not stated)
no (0)

Field: outcome | Entry: O=C(/C=C/c1cccc(Cl)c1)OCc1ccc2cc1OCC#C/C=C\C#CCO2
no (0)

Field: outcome | Entry: COc1ccc(C2C3=C(COC3=O)N(CCO)c3cc4c(cc32)CCC4)cc1 (configuration not stated)
no (0)

Field: outcome | Entry: COc1ccc(-c2nc(-c3ccccn3)c(-c3ccccn3)n2CC(C)C)cc1OC1CCCC1
no (0)

* * *

Test system: MCF7 breast
METHOD_SUMMARY: NCI-60 one-dose screen, 48 h (100 = growth as untreated, 0 = no growth, -100 = all killed)
COND: 10 µM
Compounds without any hit were thinned out: in the full panel of roughly 83,000, 20% have a hit.
QUANTITY_KIND: growth (%)
Write the number in % without appending the unit.

Field request: growth | item: CN1C(=O)N(C)C2C1NN=c1s/c(=C\c3ccc([N+](=O)[O-])cc3)c(=O)n12 (stereo not drawn)
26

Field request: growth | item: COc1ccc(/C=C2\NC(=O)NC2=O)cc1O
100

Field request: growth | item: COc1cc(OC)cc(N2C(=O)N(Cc3ccc(C(C)(C)C)cc3)c3ccccc3S2(=O)=O)c1
90.7
